test system: NCI-H23 lung; test: NCI tumour cell line growth inhibition, 48 h
Listed here are compounds together with their documented TGI.
assay-endpoint: TGI

CNc1nc(C)c(-c2nc(Nc3cccc(S(N)(=O)=O)c3)ncc2F)s1 : 0.171 µM
C[C@H](CC[C@@H](O)C(C)(C)O)[C@H]1CC[C@@]2(C)[C@@H]3CC=C4[C@@H](CC[C@H](O)C4(C)C)[C@]3(C)C(=O)C[C@]12C : > 50 µM
CCOC(=O)/C(C#N)=C/c1ccc(CO)o1 : > 100 µM
CC(C)COC(=O)N1N=NC2C3OC(CC3=O)C21 (stereo not drawn) : > 100 µM
S=C1C(=Nc2ccccc2)N(c2ccccc2)/C(=N\c2ccccn2)N1c1ccccc1 : 25 µM
CCN(CC)c1ccc(N=C2C=CC(=O)c3ncccc32)c(C)c1 : 18.6 µM
Cc1ccc(NC(=S)Nc2c(C)n(C)n(-c3ccccc3)c2=O)cc1 : > 100 µM
NS(=O)(=O)c1ccc(C2C3=C(CCCC3=O)OC3=C2C(=O)c2ccccc2C3=O)cc1 (stereo not drawn) : 1.15 µM
Cc1[nH]c(C(=O)Nc2ccc(C(=O)N3CCNCC3)cc2OC(C)C)c(Cl)c1Cl : 4.21 µM
COC(=O)/C=C\C(C#N)(C#N)N=Cc1ccc(C)s1 : 6.69 µM
CCCCCCOc1ccc(/C=N/NC(N)=S)cc1 : > 100 µM
Nc1c(C(=O)c2cccc(-c3ccc[n+]([O-])c3)c2)cnn1-c1ccc(F)cc1F : > 25 µM
Cc1ccc(C(=O)O/N=C2/CCCCC2CN(C)C)cc1 (stereo not drawn) : > 100 µM
CSc1nc(NC2OCC(O)C(O)C2O)c(N)c(=O)n1C (stereo not drawn) : > 100 µM
COc1ccc(C[C@H](N)C(=O)N2C[C@H](CO)C[C@H](n3cnc4c(N(C)C)ncnc43)C2)cc1 : > 100 µM
CCCCCCCCCCCCCC[P+](CCCCCC)(CCCCCC)CCCCCC : 1.4 µM
O=C(O)CNS(=O)(=O)c1ccc(NC(=O)c2ccc(F)cc2)cc1 : > 100 µM
OCCN(CCO)c1cccc(N(CCO)CCO)c1 : > 100 µM
Nc1ccc(-c2nc3cc(F)ccc3s2)cc1I : 18.9 µM
N#Cc1c(N2CCCC2)ncn(Cc2ccccc2)c1=S : > 100 µM
CCOC(=O)C1=C(C)C(C(=O)OC)/C(=C/c2cccc3cccnc23)C1=O (stereo not drawn) : > 10 µM
COc1ccc(-c2nsc3c2NC(=O)CC3c2ccc3c(c2)OCO3)cc1 (stereo not drawn) : > 100 µM
Nc1nc2c(c3ncccc13)C(c1ccc(Cl)c(Cl)c1)Cc1ncccc1-2 (stereo not drawn) : 21.6 µM
